# System Name: human cathepsin L (Homo sapiens, UniProt P07711)
# Construct: purchased R&D Systems
# Protocol Summary: cathepsin L assay
# Type: biochemical
# Setup Conditions: 10 pM human cathepsin L, Z-FR-AMC 2 μM, bound
pIC50: −log10 of the molar value.
Each record here notes measured pIC50.

# Entry Smiles, Measured Quantity, Test Result
measured = [
    ("COc1cccc2[nH]c(C(=O)N3C[C@H]4[C@@H]([C@H]3C(=O)N[C@@H](C[C@@H]3CCCNC3=O)C(=O)CO)C4(C)C)cc12", "pIC50", "< 5.48"),
]

Exam item: // Input: COc1cccc2sc(C(=O)N3C[C@@H]4CCC[C@@H]4[C@H]3C(=O)N[C@@H](C[C@@H]3CCNC3=O)C(=O)CO)cc12 . Output its pIC50 only.
Marked response: < 5.48

###

# System: human beta-coronavirus OC43
# Protocol Summary: microbe, parasite or virus in culture
# Assay type: cell-based
# Setup Conditions: Betacoronavirus 1, OC43, HeLa, 144 h, OC43 in HeLa cells, 6 days at 33° C., class symbols; read-out: EC50
pEC50: −log10 of the molar value.
Measured Quantity: pEC50

# Compound, pEC50
data = [
    ("COc1cccc2[nH]c(C(=O)N3C[C@]4(C[C@H]3C(=O)NC(C[C@@H]3CCCNC3=O)C(=O)C(=O)NCc3ccccc3)CC4(F)F)cc12 (stereo partly drawn)", "6.00 to 7.00"),
    ("O=C1NCC[C@H]1C[C@H](NC(=O)[C@@H]1[C@H]2CCC[C@H]2CN1C(=O)c1cc2c(Cl)c(F)cc(Cl)c2[nH]1)C(=O)CO", "> 7.00"),
    ("CC(C)C(=O)OCC(=O)[C@H](C[C@@H]1CCNC1=O)NC(=O)[C@@H]1[C@H]2CCC[C@H]2CN1C(=O)c1cc2c(Cl)cc(Cl)cc2[nH]1", "> 7.00"),
    ("COc1cccc2sc(C(=O)N3C[C@@H]4CCC[C@@H]4[C@H]3C(=O)N[C@@H](C[C@@H]3CCNC3=O)C(=O)CO)cc12", "6.00 to 7.00"),
    ("O=C(NC1CC1)C(=O)[C@H](C[C@@H]1CCNC1=O)NC(=O)[C@@H]1CC2(CCN1C(=O)c1cc3c(Cl)cc(Cl)cc3[nH]1)CC2", "6.00 to 7.00"),
    ("COc1ccnc2[nH]c(C(=O)N3C[C@@H]4CCC[C@@H]4[C@H]3C(=O)N[C@@H](C[C@@H]3CCNC3=O)C(=O)CO)cc12", "5.00 to 6.00"),
    ("COc1cccc2[nH]c(C(=O)N3C[C@]4(C[C@H]3C(=O)N[C@@H](C[C@@H]3CCNC3=O)C(=O)CO)CC4(F)F)cc12", "6.00 to 7.00"),
    ("O=C1NCC[C@H]1C[C@H](NC(=O)[C@@H]1[C@H]2CCC[C@H]2CN1C(=O)c1cc2c(Cl)ccc(C(F)(F)F)c2[nH]1)C(=O)CO", "6.00 to 7.00"),
    ("COc1cccc2[nH]c(C(=O)N3C[C@@H]4CCC[C@@H]4[C@H]3C(=O)N[C@@H](C[C@@H]3CCNC3=O)C(=O)C(=O)NCCOCc3ccccc3)cc12", "6.00 to 7.00"),
    ("COCCNC(=O)C(=O)[C@H](C[C@@H]1CCNC1=O)NC(=O)[C@@H]1[C@H]2CCC[C@H]2CN1C(=O)c1cc2c(OC)cccc2[nH]1", "5.00 to 6.00"),
]

Exam item: // Input: N#C[C@H](C[C@@H]1CCNC1=O)NC(=O)[C@@H]1[C@H]2CCC[C@H]2CN1C(=O)c1cc2c(Cl)ccc(C(F)(F)F)c2[nH]1 . Output its pEC50 only.
Marked response: 5.00 to 6.00

Exam item: // Input: COc1ccc(Br)c2[nH]c(C(=O)N3C[C@@H]4CCC[C@@H]4[C@H]3C(=O)N[C@@H](C[C@@H]3CCNC3=O)C(=O)CO)cc12 . Output its pEC50 only.
Marked response: 6.00 to 7.00
